# credit: patent US20230049231A1

Target: Kv1.3 potassium channel (Homo sapiens)
Construct: expressed in transfected cells
Sequence (P22001 whole entry): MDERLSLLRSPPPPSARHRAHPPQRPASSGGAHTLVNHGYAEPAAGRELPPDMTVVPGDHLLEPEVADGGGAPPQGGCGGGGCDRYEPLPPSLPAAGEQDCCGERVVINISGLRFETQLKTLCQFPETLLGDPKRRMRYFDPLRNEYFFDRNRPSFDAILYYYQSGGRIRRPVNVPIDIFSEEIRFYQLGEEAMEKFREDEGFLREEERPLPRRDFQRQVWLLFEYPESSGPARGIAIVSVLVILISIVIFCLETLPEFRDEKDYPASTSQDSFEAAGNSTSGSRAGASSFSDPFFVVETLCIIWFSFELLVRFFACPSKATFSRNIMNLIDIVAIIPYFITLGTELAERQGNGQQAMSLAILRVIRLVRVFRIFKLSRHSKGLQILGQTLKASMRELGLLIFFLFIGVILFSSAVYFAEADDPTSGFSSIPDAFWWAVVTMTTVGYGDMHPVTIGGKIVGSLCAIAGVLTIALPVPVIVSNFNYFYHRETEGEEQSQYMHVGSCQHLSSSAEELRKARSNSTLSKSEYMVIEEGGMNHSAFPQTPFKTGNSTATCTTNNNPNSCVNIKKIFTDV
Assay: Kv1.3 potassium channel blocker activity, automated whole-cell patch clamp (Patchliner)
Type: cell-based
Conditions: Kv1.3 potassium channel, whole-cell patch clamp
pIC50: −log10 of the molar value.
Kindly supply the reported pIC50 values for the records listed here.

Let me know recorded pIC50 for C[C@@H](CO)N1CC(=O)N2C[C@@H](c3c(O)ccc(Cl)c3Cl)C[C@H]2C1 (single isomer, unassigned; isomer 2) [Compound 117] , thanks.
> 6.00

Let me know recorded pIC50 for O=C1C(CN2CC(O)C2)OC[C@@H]2C[C@H](c3c(O)ccc(Cl)c3Cl)CCN12 (stereo partly drawn) [Compound 183] , thanks.
> 6.00

Let me know recorded pIC50 for C[C@H](O)[C@H](CO)N1CC(=O)N2C[C@@H](c3c(O)ccc(Cl)c3Cl)C[C@H]2C1 (relative stereo) [Compound 165] , thanks.
> 6.00

###

Kindly supply the reported IC50 values for the records listed here.
Target: hERG channel (Homo sapiens, UniProt Q12809)
Construct: expressed in transfected cells
Sequence (Q12809 whole entry): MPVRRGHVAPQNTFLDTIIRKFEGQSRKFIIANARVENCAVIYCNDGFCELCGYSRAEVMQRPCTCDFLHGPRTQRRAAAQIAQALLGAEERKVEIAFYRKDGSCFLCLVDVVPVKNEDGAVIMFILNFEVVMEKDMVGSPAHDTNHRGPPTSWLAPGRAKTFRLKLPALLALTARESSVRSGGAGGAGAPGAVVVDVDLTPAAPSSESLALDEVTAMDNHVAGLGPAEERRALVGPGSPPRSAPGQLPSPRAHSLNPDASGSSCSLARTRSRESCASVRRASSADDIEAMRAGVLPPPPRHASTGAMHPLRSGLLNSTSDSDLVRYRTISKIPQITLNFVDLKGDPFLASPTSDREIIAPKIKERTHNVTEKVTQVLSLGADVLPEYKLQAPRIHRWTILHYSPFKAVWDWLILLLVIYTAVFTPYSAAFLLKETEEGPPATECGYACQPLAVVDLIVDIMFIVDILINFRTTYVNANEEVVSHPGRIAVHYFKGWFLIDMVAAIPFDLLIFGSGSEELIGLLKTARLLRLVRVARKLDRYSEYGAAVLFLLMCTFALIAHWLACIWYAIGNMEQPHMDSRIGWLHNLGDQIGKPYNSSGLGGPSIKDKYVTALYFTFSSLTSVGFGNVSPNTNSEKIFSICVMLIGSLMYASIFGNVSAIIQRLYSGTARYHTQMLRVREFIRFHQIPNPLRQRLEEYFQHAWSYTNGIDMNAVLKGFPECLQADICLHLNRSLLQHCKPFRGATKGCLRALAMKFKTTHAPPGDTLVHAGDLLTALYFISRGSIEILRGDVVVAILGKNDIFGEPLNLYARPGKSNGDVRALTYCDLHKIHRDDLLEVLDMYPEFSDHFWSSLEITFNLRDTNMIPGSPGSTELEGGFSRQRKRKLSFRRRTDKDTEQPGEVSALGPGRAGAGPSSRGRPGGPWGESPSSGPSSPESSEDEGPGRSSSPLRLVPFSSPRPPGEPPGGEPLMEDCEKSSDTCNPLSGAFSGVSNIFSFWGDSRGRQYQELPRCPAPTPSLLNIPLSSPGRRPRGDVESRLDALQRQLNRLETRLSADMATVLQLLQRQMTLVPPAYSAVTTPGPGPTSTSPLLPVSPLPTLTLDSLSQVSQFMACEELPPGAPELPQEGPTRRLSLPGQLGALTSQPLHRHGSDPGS
Assay: hERG electrophysiology, automated whole-cell patch clamp (Patchliner)
Format: cell-based
Details: hERG channel, whole-cell patch clamp

Retrieve IC50 on hERG channel (Homo sapiens, UniProt Q12809); query CNCC1OC[C@@H]2C[C@H](c3c(O)ccc(Cl)c3Cl)CCN2C1=O (stereo partly shown)
< 30 µM

Retrieve IC50 on hERG channel (Homo sapiens, UniProt Q12809); query C[C@@H](O)[C@@H](CO)N1CC(=O)N2C[C@@H](c3c(O)ccc(Cl)c3Cl)C[C@H]2C1 (relative stereo)
> 30 µM

Retrieve IC50 on hERG channel (Homo sapiens, UniProt Q12809); query N[C@H]1CC2C[C@H](c3c(O)ccc(Cl)c3Cl)CN2C1=O (single isomer, unassigned)
< 10 µM

Retrieve IC50 on hERG channel (Homo sapiens, UniProt Q12809); query CC(=O)NCC1OC(=O)N2C[C@@H](c3c(O)ccc(Cl)c3Cl)C[C@@H]12 (stereo partly shown)
> 30 µM

Retrieve IC50 on hERG channel (Homo sapiens, UniProt Q12809); query O=C1C[C@@H](N2CC[C@H](O)C2)C[C@@H]2C[C@H](c3c(O)ccc(Cl)c3Cl)CN12 (single isomer, unassigned)
> 30 µM

Retrieve IC50 on hERG channel (Homo sapiens, UniProt Q12809); query `O=C(C[C@H](O)C1CC1)N1CC(=O)N2C[C@@H](c3c(O)ccc(Cl)c3Cl)C[C@H]2C1`
< 30 µM

Retrieve IC50 on hERG channel (Homo sapiens, UniProt Q12809); query O=C1CN(C2COCC2O)C[C@@H]2C[C@H](c3c(O)ccc(Cl)c3Cl)CN12 (stereo partly shown)
> 30 µM

###

Target: hERG channel (Homo sapiens, UniProt Q12809)
Construct: expressed in transfected cells
Test: hERG electrophysiology, automated whole-cell patch clamp (Patchliner)
Format: cell-based
Settings: CHO-K1 cells stably expressing hERG; +20 mV 300 ms, -50 mV 300 ms tail current, 0.3 Hz
Kindly supply the reported IC50 values for the records listed here.

Retrieve IC50 on hERG channel (Homo sapiens, UniProt Q12809); query `O=C(CO)N1CCC(=O)N2C[C@@H](c3c(O)ccc(Cl)c3Cl)C[C@H]2C1`
> 30 µM

Retrieve IC50 on hERG channel (Homo sapiens, UniProt Q12809); query `O=C1CNC[C@@H]2C[C@H](c3c(O)ccc(Cl)c3Cl)CCN12`
< 30 µM

Retrieve IC50 on hERG channel (Homo sapiens, UniProt Q12809); query `O=C1[C@@H](CO)OC[C@@H]2C[C@H](c3c(O)ccc(Cl)c3Cl)CN12`
> 30 µM

Retrieve IC50 on hERG channel (Homo sapiens, UniProt Q12809); query `C[C@H](O)C(=O)N1CC(=O)N2CC[C@@H](c3c(O)ccc(Cl)c3Cl)C[C@H]2C1`
> 30 µM

Retrieve IC50 on hERG channel (Homo sapiens, UniProt Q12809); query O=C1[C@@H](CO)OC[C@@H]2C[C@H](c3c(O)ccc(Cl)c3Cl)CCN12 (single isomer, unassigned)
> 30 µM

Retrieve IC50 on hERG channel (Homo sapiens, UniProt Q12809); query `C[C@H](O)CC(=O)N1CC(=O)N2C[C@@H](c3c(O)ccc(Cl)c3Cl)C[C@H]2C1`
> 30 µM

Retrieve IC50 on hERG channel (Homo sapiens, UniProt Q12809); query `O=C([C@@H](O)CO)N1CC(=O)N2CC[C@@H](c3c(O)ccc(Cl)c3Cl)C[C@H]2C1`
> 30 µM

Retrieve IC50 on hERG channel (Homo sapiens, UniProt Q12809); query `CNC(=O)N1CC(=O)N2C[C@@H](c3c(O)ccc(Cl)c3Cl)C[C@H]2C1`
> 30 µM
